# Lookup of reported cAMP EC50 keyed by entry
# Target Entity: human MC4R receptor (human, UniProt P32245 1-332)
# Sequence (P32245 whole entry): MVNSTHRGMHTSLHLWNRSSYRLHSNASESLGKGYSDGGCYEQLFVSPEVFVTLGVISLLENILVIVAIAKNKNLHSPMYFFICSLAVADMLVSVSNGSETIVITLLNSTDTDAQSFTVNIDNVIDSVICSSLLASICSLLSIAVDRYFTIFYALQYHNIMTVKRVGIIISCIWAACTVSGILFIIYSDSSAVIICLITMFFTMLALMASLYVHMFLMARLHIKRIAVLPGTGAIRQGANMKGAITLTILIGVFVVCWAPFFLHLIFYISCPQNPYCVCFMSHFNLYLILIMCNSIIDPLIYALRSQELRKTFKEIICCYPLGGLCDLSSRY
# Assay Remarks: cell-based or functional assay
Positions of bridges follow the written chain, without caps; N, C: chain ends. Non-standard residues stand in square brackets, D forms with d. dPhe(4-tBu) = CC(C)(C)c1ccc(C[C@@H](N)C(=O)O)cc1; dPhe(4-Br) = N[C@H](Cc1ccc(Br)cc1)C(=O)O; Nle = CCCC[C@H](N)C(=O)O
Metric Name: cAMP EC50 (nM)

- Binder: "Ac-RC[dA]R[dPhe(4-tBu)]R[dW]C-NH2 (disulfide 2-8; SMILES CC(=O)N[C@@H](CCCNC(=N)N)C(=O)N[C@H]1CSSC[C@@H](C(N)=O)NC(=O)[C@@H](Cc2c[nH]c3ccccc23)NC(=O)[C@H](CCCNC(=N)N)NC(=O)[C@@H](Cc2ccc(C(C)(C)C)cc2)NC(=O)[C@H](CCCNC(=N)N)NC(=O)[C@@H](C)NC1=O) [CTX-1242]"
  Unit Tag: "nM"
  Experimental Value: 26
- Binder: "Ac-R[Nle]CR[dPhe(4-Br)]RWC-NH2 (disulfide 3-8; SMILES CCCC[C@H](NC(=O)[C@H](CCCNC(=N)N)NC(C)=O)C(=O)N[C@H]1CSSC[C@@H](C(N)=O)NC(=O)[C@H](Cc2c[nH]c3ccccc23)NC(=O)[C@H](CCCNC(=N)N)NC(=O)[C@@H](Cc2ccc(Br)cc2)NC(=O)[C@H](CCCNC(=N)N)NC1=O) [CTX-1612]"
  Unit Tag: "nM"
  Experimental Value: 2
